Measured nonsense suppression by item
B1: tRNA (parent)
chain: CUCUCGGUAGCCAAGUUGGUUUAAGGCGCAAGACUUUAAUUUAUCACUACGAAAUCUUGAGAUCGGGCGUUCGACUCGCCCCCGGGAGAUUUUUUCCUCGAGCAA

Variants of: B1
protocol.description: nonsense suppression (GFP-seq) (ratio to wild type); higher = more function; SUP4oc tRNA, yeast GFP reporter sort-seq
Fewer inactive variants are shown than the library holds.

Example cases with answers are listed next.
INSERT INTO assay_data (variant_descriptor, readout_label, result) VALUES
  ('U4C U35G G61A G78A C83A G86C', 'nonsense suppression', '≤ 0.026'),
  ('U17C A62G U70C', 'nonsense suppression', '≤ 0.026'),
  ('C83U G86A', 'nonsense suppression', '≤ 0.026'),
  ('U2C G32A A54G', 'nonsense suppression', '≤ 0.026');

Fill in: nonsense suppression of A9G A13U A74C is ___
≤ 0.026

What do you have for A23C U76G G88A ?
≤ 0.026

Entry to check: A62G U63C G66A
≤ 0.026
